Reference source: PubChem BioAssay

Target: Torsin-1A-interacting protein 1 (Homo sapiens)
Assay: LAP1 binders from COS7 cell lysate, primary screen, small-molecule microarray, 635/667 nm fluorescence (AID 1116)
Conditions: COS7-hLAP1 lysate binding, 635 nm fluorescence, higher = more signal
Label 0 if composite z-score falls below 0.6; label 1 in every other case.

Completed entries (count: 5):
# molecule, className
rows = [
    ("CCOC(=O)[C@H]1C/C=C/C[C@H](C(=O)OCC)C(=O)O[C@H]2[C@@H](OC)O[C@H](CO)[C@@H](OC(=O)CCc3ccccc3)[C@@H]2OC1=O", 0),
    ("CCOc1cc(C(O)C2C=CC3C(=O)N(C4CCCCC4)C(=O)C3N2Nc2ccc(OC)cc2)ccc1O (stereo unspecified)", 0),
    ("Cc1c(NC(=O)/C(C#N)=C/C=C/c2ccc(N(C)C)cc2)c(=O)n(-c2ccccc2)n1C", 1),
    ("CCOC(=O)[C@H]1C/C=C/C[C@H](C(=O)OCC)C(=O)O[C@H]2[C@@H](OC)O[C@H](CO)[C@@H](OC(=O)Nc3ccc(OC)cc3)[C@@H]2OC1=O", 1),
    ("CCOC(=O)C[C@H]1[C@H](OC(=O)c2ccccc2-c2ccccc2)[C@@H](NC(=O)c2ccc3ccccc3n2)c2cc(OCCCO)ccc2N1C(=O)c1ccc2ccccc2n1", 0),
]

Is it the case that COc1ccc(C(O)C2C=CC3C(=O)N(c4ccccc4)C(=O)C3N2Nc2ccccc2)cc1OCc1ccccc1 (stereo unspecified) has composite z-score reaching or exceeding 0.6? 1

Hello, I need to know if `O=C(N1CCCCC1)[C@@]1(Cc2ccccc2)COC(c2ccc(OCCCO)cc2)=N1` has measured composite z-score not below 0.6. Thanks! 1

Decide: is the reported value of composite z-score for `O=c1cccc(-c2ccc(C(F)(F)F)cc2)o1` equal to or greater than 0.6? 0

###

Tested on: Lefty1
Test: Lefty1 binders on small-molecule microarrays, primary screen, biochemical, small-molecule microarray, 635/667 nm fluorescence (AID 1139)
Conditions: small-molecule microarray binding, fluorescence 635/667; higher = more signal
recordedEndpoint: composite z-score
Form field (numeric): enter value without unit.

Answered examples (3):
# molecule, composite z-score
rows = [
    ("CN(C)CCCNC(=O)[C@@H]1c2ccccc2C(=O)N(CC23CC4CC(CC(C4)C2)C3)[C@H]1c1ccc(CO)cc1", 1.26),
    ("CCOC(=O)C1=CC[C@@H](c2ccc([N+](=O)[O-])cc2)N(S(=O)(=O)c2ccc(C)cc2)[C@H]1c1ccccc1", 0.969),
    ("COc1cc(OC)c(C(O)C2C=CC3C(=O)N(c4ccccc4)C(=O)C3N2Nc2ccc(C#N)cc2)cc1Br (stereo not drawn)", -0.129),
]

get_value(item= `COC(=O)c1c(CC[C@@H](CO)NC(=O)N[C@H](Cn2cc(-c3ccccc3C)nn2)C(C)C)oc(C(C)=O)c1C(=O)OC` , readout=composite z-score) returns -0.0683

Entry `[N-]=[N+]=NCc1ccccc1C[C@@]1(C(=O)NCCN2CCOCC2)N=C(c2ccc(OCCCO)cc2)O[C@@H]1c1ccccc1N=[N+]=[N-]` ; composite z-score = -0.165

Data point: `COCCCNC(=O)[C@@]1(Sc2ccc(C)cc2)CC(=O)N(C2Cc3ccccc3C2)[C@@H]1c1ccc(CO)cc1I` ; composite z-score = -1.68

Field composite z-score (entry O=C1C2C=CC(C(O)c3cc(C(F)(F)F)cc(C(F)(F)F)c3)N(Nc3ccc([N+](=O)[O-])cc3)C2C(=O)N1c1ccccc1 (stereo not drawn) ) reads 0.953

// `COCCCNC(=O)[C@@]1(Sc2ccc(C)cc2)CC(=O)N(Cc2cc(C(F)(F)F)cc(C(F)(F)F)c2)[C@@H]1c1ccc(CO)cc1` : composite z-score value = 1.25

###

Target: Follistatin-related protein 3 (Homo sapiens)
Assay: FSTL3 binders on small-molecule microarrays, primary screen, biochemical, small-molecule microarray, 635 nm fluorescence (AID 1105);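 also: score merges emission near 667 nm and signal to noise per printed spot across three slides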
Conditions: FSTL3 binding, higher = more signal
recordedEndpoint: composite z-score
Simply state the number, no unit and no words.

# compound, composite z-score
rows = [
    ("[N-]=[N+]=NCc1ccccc1C[C@@]1(C(=O)NCCN2CCOCC2)N=C(c2ccc(OCCCO)cc2)O[C@@H]1c1ccccc1N=[N+]=[N-]", 0.325),
    ("C=CCOC(=O)[C@@H]1[C@H]2C(=O)O[C@H](c3ccccc3)[C@H](c3ccccc3)N2[C@H](c2ccc(OCCOC(=O)[C@H]3C[C@H]4C(=O)N[C@@H](CCCC[N+](C)(C)C)C(=O)N4[C@H]3c3ccc(O)cc3)cc2)[C@@]12C(=O)Nc1ccc(I)cc12", 1.51),
]

composite z-score recorded for this compound, `CCC[C@@H]1C[C@@]1(CCC)[C@@H](NP(=O)(c1ccccc1)c1ccccc1)c1ccc(Cl)cc1` , is -0.366

Value of composite z-score reported for the compound `CC(=O)NCCCC[C@@H]1NC(=O)[C@@H]2C[C@H](C(=O)O)[C@H](c3ccc(O)cc3)N2C1=O` is -1.98

Briefly, composite z-score measured for O=C1OC[C@@H](c2ccccc2)N2CC(/C=C/c3ccccc3)=CC12 (some centres not stated) : -1.16

Noted for `COC(=O)C(CC#Cc1ccc2c(c1)[C@]1(C(=O)N2)[C@H](C(=O)O)[C@H]2C(=O)O[C@H](c3ccccc3)[C@H](c3ccccc3)N2[C@@H]1c1ccccc1OCCO)C(=O)OC` : its composite z-score reads 1.06

Per the records, this compound ( `O=C1O[C@@H](c2ccccc2)[C@@H](c2ccccc2)N2[C@@H](c3ccccc3OCCO)[C@]3(C(=O)Nc4ccc(C#CCCO)cc43)[C@@H](C(=O)N3CCN(c4ncccn4)CC3)[C@H]12` ) has composite z-score equal to 0.315

Summary for this compound, `NC(=O)NCC#Cc1ccc2c(c1)[C@]1(C(=O)N2)[C@H](C(=O)Nc2nc3ccccc3s2)[C@H]2C(=O)O[C@H](c3ccccc3)[C@H](c3ccccc3)N2[C@@H]1c1ccc(O)cc1` : composite z-score is 0.53

###

System: Human papillomavirus type 1a protein E7 (residues 44-93)
Experiment: HPV1a E7 fragment binders on microarrays, primary screen, biochemical, small-molecule microarray, residues 44-93, 635 nm fluorescence (AID 1108);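 also: E7 fragment applied at 1 µg/mL in TBST for 1 h at 4 C; score combines spot fluorescence with its signal to noise ratio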
Conditions: small-molecule microarray binding, fluorescence 635 nm; higher = more signal
recordedEndpoint: composite z-score

# compound, experimentalSystem, result
records = [
    ("C=C1C2CC3C(=C4C(CO[C@@H]4[C@H]4CCCN4S(=O)(=O)c4ccccc4[N+](=O)[O-])C4C(=O)N(C)C(=O)C34)CC2C(=O)N1C (stereo partly specified)", "Human papillomavirus type 1a protein E7 (residues 44-93)", -1.04),
    ("CC[C@@H]1[C@H]2C3C(=O)N(CC)C(=O)C3CC(=O)[C@H]2[C@H](c2ccc(C)cc2)N1S(=O)(=O)c1ccc(C)cc1 (stereo partly specified)", "Human papillomavirus type 1a protein E7 (residues 44-93)", 1.4),
    ("CON(C)C(=O)C=C1C[C@@H](c2cccc(Cl)c2)O[C@@H](c2cccc(Cl)c2)O1", "Human papillomavirus type 1a protein E7 (residues 44-93)", 0.151),
    ("CCOC(=O)C[C@H]1[C@H](OC(=O)Cc2ccc3c(c2)OCO3)[C@@H](NC(=O)C2CCCCC2)c2cc(OCCCO)ccc2N1C(=O)c1ccc2ccccc2n1", "Human papillomavirus type 1a protein E7 (residues 44-93)", 1.33),
    ("C=CCOC(=O)[C@H]1[C@@H]2C(=O)O[C@@H](c3ccccc3)[C@@H](c3ccccc3)N2[C@@H](c2ccc(OCCOC(=O)[C@H]3C[C@H]4C(=O)N[C@@H](CCCC[N+](C)(C)C)C(=O)N4[C@H]3c3cccc(OCCO)c3)cc2)[C@]12C(=O)Nc1ccc(I)cc12", "Human papillomavirus type 1a protein E7 (residues 44-93)", 0.62),
]

Note to self: composite z-score recorded for `NCCCCCCNC(=O)[C@H]1C[C@H]2C(=O)N[C@@H](Cc3ccccc3)C(=O)N2[C@H]1c1ccc(O)cc1` was 0.74

###

Test: osmotic lysis modulators in infected erythrocytes, primary screen, PSAC antagonist project, cell-based, P. falciparum Indochina, OD700, 3 h (AID 1156)
Conditions: higher = more signal, called active from +8 up or from −8 down
Calls of active or inactive are those of the source.
recordedEndpoint: z-score

Examples with answers:
# compound, z-score
data = [
    ("CC(C)(C)OC(=O)CC[C@@]1(C(=O)O)N=C(c2ccc(OCCCO)cc2)O[C@@H]1c1ccccc1CN=[N+]=[N-]", "-0.0836 (inactive)"),
    ("C=CCN1C(=O)[C@@]2(O[C@@H](CCn3cc([C@H](O)c4ccccc4)nn3)[C@H]([Si](C)(C)c3ccc(OC)cc3)[C@H]2C)c2ccccc21", "1.04 (inactive)"),
    ("C=C(CCCC)C(=O)CC[C@@H](OC(=O)c1ccccc1-c1ccccc1C(=O)O)c1cccc(OCCO)c1", "1.11 (inactive)"),
    ("C=CCNC(=O)[C@@H]1[C@H]2C(=O)O[C@H](c3ccccc3)[C@H](c3ccccc3)N2[C@H](c2ccccc2OCCO)[C@@]12C(=O)N(C(=O)OCCOC)c1ccc(C#CC3=CCCCC3)cc12", "0.123 (inactive)"),
    ("NC(=O)NCC#Cc1ccc2c(c1)[C@]1(C(=O)N2)[C@H](C(=O)O)[C@H]2C(=O)O[C@H](c3ccccc3)[C@H](c3ccccc3)N2[C@@H]1c1ccccc1OCCO", "-3.99 (inactive)"),
]

Memo: `COCCOC(=O)N1C(=O)[C@@]2(c3cc(C#CC4=CCCCC4)ccc31)[C@H](c1ccccc1OCCO)N1[C@H](c3ccccc3)[C@H](c3ccccc3)OC(=O)[C@H]1[C@@H]2C(=O)N1CCc2cc(OC)c(OC)cc2C1` , reported z-score: 0.578 (inactive)

z-score recorded for this compound, `CC(C)CNC(=O)[C@@]1(c2ccc([N+](=O)[O-])cc2)CC(=O)N(C2CCCCC2)[C@@H]1c1ccc(CO)cc1I` , is 3.67 (inactive)
